# target: MCL-1 (Homo sapiens)
# Sequence (Q07820 whole entry): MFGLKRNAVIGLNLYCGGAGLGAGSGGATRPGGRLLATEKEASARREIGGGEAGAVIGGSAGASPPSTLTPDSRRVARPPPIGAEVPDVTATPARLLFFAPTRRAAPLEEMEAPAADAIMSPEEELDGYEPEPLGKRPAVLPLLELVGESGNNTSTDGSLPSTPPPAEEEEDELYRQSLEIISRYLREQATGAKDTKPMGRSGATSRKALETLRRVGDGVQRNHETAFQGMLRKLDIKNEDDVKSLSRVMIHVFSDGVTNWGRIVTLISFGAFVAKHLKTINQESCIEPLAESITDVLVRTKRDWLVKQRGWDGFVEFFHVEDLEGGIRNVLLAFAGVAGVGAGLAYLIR
# method-notes: Protein-protein interaction assay MCL-1/Noxa BH3 peptide (MCL-1 assay), TR-FRET
# Type: binding
# condition-summary: MBP-MCL-1 / Noxa BH3-derived peptide, median
assay-endpoint: IC50 (nM)

Would you please look over these solved cases?
[
  {
    "compound": "CCn1nc(C2CC2)c2c1COCCCCn1c(C(=O)O)c(CCCOc3cccc4ccccc34)c3cccc-2c31 (racemic) [Example 088]",
    "assay-endpoint": "IC50",
    "numeric-value": 6.94
  },
  {
    "compound": "CN1CCCn2c(C(=O)O)c(CCCOc3cccc4ccccc34)c3cccc(c32)-c2c(nn(C)c2C(F)(F)F)C1 (racemic)",
    "assay-endpoint": "IC50",
    "numeric-value": 27
  },
  {
    "compound": "CCc1nn(C)c2c1-c1cccc3c(CCCOc4cccc5cc(F)ccc45)c(C(=O)O)n(c13)CCCCOC2 (single isomer, unassigned) [Example 288]",
    "assay-endpoint": "IC50",
    "numeric-value": 1.49
  },
  {
    "compound": "COc1cc2cc(c1)-c1cccc3c(CCCOc4cccc5c4CCCC5)c(C(=O)O)n(c13)CCOCCO2 (racemic)",
    "assay-endpoint": "IC50",
    "numeric-value": 2180
  }
]

[I] CCc1nn(C)c2c1-c1c(C)ccc3c(C(C)CCOc4cccc5ccccc45)c(C(=O)O)n(c13)CCCCOC2 (single isomer, unassigned) [Example 272]
[II] CCc1c2c(nn1C)CN(C)CCCn1c(C(=O)O)c(CCCOc3cccc4ccccc34)c3cccc-2c31 (racemic) [Example 141]
*Q* Please indicate which has the smaller reported IC50: I , or II . Which one? Tell me its label.
*A* II
(II: 7.27 nM, I: 983 nM)

[I] CCc1nn(C)c2c1-c1c(C)ccc3c(C(C)CCOc4cccc5ccccc45)c(C(=O)O)n(c13)CCCCOC2 (single isomer, unassigned) [Example 273]
[II] Cc1nn(C)c2c1-c1cccc3c(CCCOc4cccc5ccccc45)c(C(=O)O)n(c13)CCCOC2 (single isomer, unassigned; enantiomer 2) [Example 045]
[III] Cn1nc(CO)c2c1COCCCCn1c(C(=O)O)c(CCCOc3cccc4ccccc34)c3cccc-2c31 (racemic)
[IV] O=C(O)c1c(CCCOc2cccc3ccccc23)c2cccc3c2n1CCCCOCc1nn2c(c1-3)OCCC2 (single isomer, unassigned) [Example 249]
*Q* Hello, I need these entries ordered by IC50, highest reading first. Thanks! Ranked list of labels, please, in the requested order.
*A* IV, II, I, III
(IV: 42.7 nM, II: 25.9 nM, I: 5.89 nM, III: 3.9 nM)

[I] COCc1nn(C)c2c1-c1cccc3c(CCCOc4cccc5ccccc45)c(C(=O)O)n(c13)CCCN(C)C2 (single isomer, unassigned; enantiomer 2) [Example 1-104]
[II] Cc1c2c(nn1C)COCCCCn1c(C(=O)O)c(CCCOc3cccc4cc(C(F)(F)F)ccc34)c3cccc-2c31 (single isomer, unassigned; enantiomer 2) [Example 312]
*Q* I'm curious whether I or II has the smaller IC50 number. Which is it? Write down the label attached to your selection.
*A* I

###

# System: A2780
# method-notes: Anti-proliferative effect (CellTiter-Glo, 72 h), A2780
# Assay type: cell-based
# condition-summary: A2780 cells, median, read-out: IC50 antiproliferation assay A2780 [M] (median)
assay-endpoint: IC50 (M)

[
  {
    "compound": "Cn1nc(CN2CCOCC2)c2c1COCC=CCn1c(C(=O)O)c(CCCOc3cccc4ccccc34)c3cccc-2c31 (single isomer, unassigned; enantiomer 2)",
    "target": "A2780",
    "IC50 (M)": "2.07e-05"
  },
  {
    "compound": "Cn1nc(CN2CC(F)(F)C2)c2c1COCCCCn1c(C(=O)O)c(CCCOc3cccc4ccccc34)c3cccc-2c31 (single isomer, unassigned; enantiomer 2)",
    "target": "A2780",
    "IC50 (M)": "1.75e-05"
  }
]

[1] CCc1c2c(nn1C)COCCCCn1c(C(=O)O)c(CCCOc3cccc4cc(F)ccc34)c3cccc-2c31 (single isomer, unassigned) [Example 283]
[2] Cc1nn(C)c2c1-c1cccc3c(CCCOc4cccc5c4CCCC5)c(C(=O)O)n(c13)CCCCOC2 (single isomer, unassigned; enantiomer 2) [Example 008]
*Q* Return label of the item with the larger IC50. Candidates: 1 , 2 . Answer format: the label of the selected item.
*A* 2
(2: 2.46e-05 M, 1: 1.5e-05 M)

###

# System: SUDHL5
# method-notes: Anti-proliferative effect (CellTiter-Glo, 72 h), SUDHL5
# Assay type: cell-based
# condition-summary: Homo sapiens, SU-DHL-5, 72 h, SUDHL5 cells, antiproliferation, 72 h incubation, median, read-out: Antiproli SUDHL5 [M] (median)
assay-endpoint: IC50 (M)

Before answering, review these 8 worked examples.
[
  {
    "molecule": "Cc1nn(C)c2c1-c1cccc3c(CCCOc4cccc5c4CCCC5)c(C(=O)O)n(c13)CCCCCN(C)C2 [Example 240]",
    "IC50 (M)": "1.19e-05"
  },
  {
    "molecule": "Cn1nc(CN2CC(F)(F)C2)c2c1COCCCCn1c(C(=O)O)c(CCCOc3cccc4ccccc34)c3cccc-2c31 (racemic) [Example 180]",
    "IC50 (M)": "7.77e-06"
  },
  {
    "molecule": "CN1CCCCn2c(C(=O)O)c(CCCOc3cccc4ccccc34)c3cccc(c32)-c2c(CC(F)(F)F)nn(C)c2C1 (racemic) [Example 222]",
    "IC50 (M)": "9.85e-06"
  },
  {
    "molecule": "Cc1c2c(nn1CC(F)(F)F)COC/C=C\\Cn1c(C(=O)O)c(CCCOc3cccc4ccccc34)c3cccc-2c31 (racemic) [Example 091]",
    "IC50 (M)": "6.92e-06"
  },
  {
    "molecule": "CCc1c2c(nn1CCN1CCOCC1)COCCCCn1c(C(=O)O)c(CCCOc3cccc4ccccc34)c3cccc-2c31 (racemic) [Example 201]",
    "IC50 (M)": "4.3e-06"
  },
  {
    "molecule": "O=C(O)c1c(CCCOc2cccc3ccccc23)c2cccc3c2n1CCCCOCc1nn2c(c1-3)COCC2 (single isomer, unassigned) [Example 251]",
    "IC50 (M)": "6.23e-06"
  },
  {
    "molecule": "CCCc1nn(C)c2c1-c1c(C)ccc3c(CCCOc4cccc5ccccc45)c(C(=O)O)n(c13)CCCN(C)C2 (racemic) [Example 193]",
    "IC50 (M)": "4.45e-06"
  },
  {
    "molecule": "CCS(=O)(=O)N1CCN(c2ccc(N3CCCn4c(C(=O)O)c(CCCOc5cccc6ccccc56)c5cccc(c54)-c4c(C)nn(C)c4C3)cc2)CC1 (single isomer, unassigned; enantiomer 1) [Example 1-109]",
    "IC50 (M)": "4.55e-06"
  }
]

[I] O=C(O)c1c(CCCOc2cccc3ccccc23)c2cccc3c2n1CCCCOCc1nn2c(c1-3)COCC2 (racemic) [Example 250]
[II] CC(=O)N1CCN(c2ccc(OCc3nn(C)c4c3-c3cccc5c(CCCOc6cccc7ccccc67)c(C(=O)O)n(c35)CCCCOC4)cc2)CC1 (racemic) [Example 1-24]
[III] Cn1nc(CN2CCOCC2)c2c1COCCCCn1c(C(=O)O)c(CCCOc3cccc4ccccc34)c3cccc-2c31 (single isomer, unassigned; enantiomer 2) [Example 137]
*Q* Order the records so the highest IC50 appears first and the lowest last. Reply: labels, ordered per the request.
*A* I, II, III

###

# Tested on: SUDHL10
# method-notes: Induction of cytotoxicity (CellTiter-Glo, 5 h), SUDHL10
# condition-summary: read-out: Cytotox SUDHL10 [M] (median); SUDHL10 cells, cytotoxicity induction, CellTiter-Glo, 5 h incubation, median
Some molecules, each annotated with its measured IC50.
Just the number in M, nothing appended.

[
  {
    "molecule": "CCc1c2c(nn1C)COCCCCn1c(C(=O)O)c(CCCOc3cccc4cc(F)ccc34)c3cccc-2c31 (single isomer, unassigned) [Example 283]",
    "numeric-value": "3.05e-05"
  },
  {
    "molecule": "Cc1c2c(nn1CCN1CCOCC1)CN(C)CCCn1c(C(=O)O)c(CCCOc3cccc4ccccc34)c3cccc-2c31 (single isomer, unassigned; enantiomer 1) [Example 060]",
    "numeric-value": "7.87e-06"
  }
]

Record CN1CCCn2c(C(=O)O)c(CCCOc3cccc4ccccc34)c3cccc(c32)-c2c(nn(C)c2COc2ccc(N3CCN(S(=O)(=O)N(C)C)CC3)cc2)C1 (single isomer, unassigned; enantiomer 1) [Example 1-112] has SUDHL10 IC50 equal to 5.46e-06
